RP-LC retention time values by entry
Assay Protocol: gradient 5% acetonitrile 3 min, to 50% in 2 min, to 85% in 15 min, held 3 min, 100 µL/min
Particulars: column: Zorbax Extend-C18 2.1 x 50 mm; eluents: water / acetonitrile, 0.1% formic acid
Please respond with the number in s and leave the unit unwritten.

Sample records with RP-LC retention time:
>>> reported("CCOc1ccc(CC(=O)N2CCN(Cc3nc(C)cs3)CC2)cc1")
586
>>> reported("Cc1ccc(CNC(=O)c2ccc3c(c2)ncn3CCN2CCCC2)cc1C")
595

# RP-LC retention time lookup, item COc1ccc(C(=O)N2CCN(c3cc(-c4cccs4)[nH]n3)CC2)cc1OC
741

Another compound to look at: O=C1NCC/C1=C\c1ccc(C(F)(F)F)cc1
718

# iterate: CCc1nc(N)n(CC(=O)Nc2ccc(F)cc2C)c(=O)c1C
626

Okay, and CCN1CCN(c2ccc(NC(=O)c3cccc(Cl)c3)cn2)C1=O ?
802

Then this compound: CC1CCN(S(=O)(=O)c2cccc(-c3nc(-c4ccccc4)no3)c2)CC1
1360

Item: Cc1cc(N2CCC(NC(=O)Nc3cccc(F)c3C)C2=O)ccc1F (stereo not drawn)
904

====

Assay Protocol: gradient 5% acetonitrile 3 min, to 50% in 2 min, to 85% in 15 min, held 3 min, 100 µL/min
Particulars: column: Zorbax Extend-C18 2.1 x 50 mm; eluents: water / acetonitrile, 0.1% formic acid
Result Type: RP-LC retention time (s)
Report the value in s with no unit label.

>>> reported("CCCN(CCC)[C@@H]1CCc2cccc(O)c2C1")
691
>>> reported("CCOc1cc(C(=O)Nc2nc(-c3ccc4c(c3)NC(=O)CO4)cs2)cc(OCC)c1OCC")
1030
>>> reported("CN(C(=O)C1CCN(S(=O)(=O)c2ccc3c(c2)sc(=O)n3C)CC1)C1CCCCC1")
910
>>> reported("Cc1ccc(NC(=O)Cn2cnc3nc(N4CCCC(C(=O)NC(C)C)C4)sc3c2=O)c(C)c1 (stereo unspecified)")
710
>>> reported("CCOc1ccc(-c2c(C)nn3c(C)c(C(=O)NCCCN4CCCC4=O)cnc23)cc1OCC")
744

Proceeding to the next compound to report its RP-LC retention time.
I have this compound here, CC(=O)N1CCc2nn(CC(=O)N3CCc4ccccc43)c(=O)cc2C1 , and I need its recorded RP-LC retention time.
639

====

Assay Protocol: gradient 5% acetonitrile 3 min, to 50% in 2 min, to 85% in 15 min, held 3 min, 100 µL/min
Particulars: column: Zorbax Extend-C18 2.1 x 50 mm; eluents: water / acetonitrile, 0.1% formic acid
Property: RP-LC retention time; scope: individual compounds
Output spec: scalar in s, unitless text.

>>> reported("Cc1ccc(C)n1-c1nnc(N2CCC(C(=O)N3CCN(c4ccccn4)CC3)CC2)s1")
634
>>> reported("O=C(N[C@H]1C[C@@H]2C[C@H]1CN2C(=O)c1ccc2c(c1)OCO2)c1cccs1")
871
>>> reported("Cc1sc2ccn(C)c(=O)c2c1C(=O)NC1CCCCCC1")
804
>>> reported("Clc1cccc(-c2nc3ccc(Cl)cn3c2Nc2ccc3c(c2)OCO3)c1")
978
>>> reported("COc1ccc2c(c1)C=C(C(=O)N(C)c1ccccc1)C=CO2")
1030

Consider the compound shown here: Cn1ncc2c(N3CCCC3)nc(C(=O)NCc3cccnc3)nc21 What is its recorded RP-LC retention time?
562

Again, but for Cc1ccc(NC(=O)C2CCCN(c3cc(=O)n(C)c(=O)n3C)C2)cc1 (stereo unspecified)
725

And the next one, CN1CCCCCCN(C(=O)c2cc(CN3CCOCC3)on2)[C@H]2CCC[C@H]2C1=O ?
614

Item: COc1ccccc1N1C(=O)CC(Sc2ccccc2N)C1=O (stereo unspecified)
865

Moving on to O=C(CCc1c[nH]c2ccccc12)N1CCC(c2nc3ccccc3[nH]2)CC1
594

Next up: Cc1ccc(C(=O)N2CCN(c3nnc4cccc(C)n34)CC2)cc1F
667

====

Assay Protocol: gradient 5% acetonitrile 3 min, to 50% in 2 min, to 85% in 15 min, held 3 min, 100 µL/min
Particulars: column: Zorbax Extend-C18 2.1 x 50 mm; eluents: water / acetonitrile, 0.1% formic acid
Result Type: RP-LC retention time (s)
Please give a number only; it is taken to be in s.

>>> reported("Cc1cc(C(=O)Nc2nc3c(s2)CN(C(=O)c2snnc2C)CC3)no1")
660
>>> reported("Cc1cc(N2CCN(C)CC2)nc2ccc(NC(=S)NC3CCCC(C)C3C)cc12 (centres undefined)")
639
>>> reported("COc1ccc(OCc2nnc3sc(-c4ccccn4)nn23)cc1")
823

Then this compound:
Could you tell me which RP-LC retention time is on file for CCC(=O)Nc1ccc(-n2cnc(C(=O)N3CCN(c4ccccc4OC)CC3)c2)nc1 ?
667

====

Assay Protocol: gradient 5% acetonitrile 3 min, to 50% in 2 min, to 85% in 15 min, held 3 min, 100 µL/min
Particulars: column: Zorbax Extend-C18 2.1 x 50 mm; eluents: water / acetonitrile, 0.1% formic acid
Measured RP-LC retention time by item
Supply the numeric figure in s, leaving out any unit text.

// worked examples, RP-LC retention time included
>>> reported("CCOc1ccc(NC(=O)N2CCC3(CC2)NC(=O)c2ccccc2N3C)cc1")
781
>>> reported("O=C(NCCn1nnc2cc(C(=O)N3CCCCC3)ccc21)NC1CCCCC1")
707
>>> reported("CCn1cc(CCN2CCC(C(=O)N3CCCCC3)CC2)c2cccnc21")
587
>>> reported("CCOC(=O)C1CCN(S(=O)(=O)c2cc(-c3c(CC)noc3NC(C)=O)ccc2OC)CC1")
797

Now turn to the next compound.
Which RP-LC retention time is listed for CSc1ccc(-c2nc3c(C)cccn3c2Nc2ccc3c(c2)OCCO3)cc1 ?
749

====

Assay Protocol: gradient 5% acetonitrile 3 min, to 50% in 2 min, to 85% in 15 min, held 3 min, 100 µL/min
Particulars: column: Zorbax Extend-C18 2.1 x 50 mm; eluents: water / acetonitrile, 0.1% formic acid
In this section we review reported RP-LC retention time values for a set of compounds.
Write the quantity with the unit trailing the number.

>>> reported("Cc1ccc2[nH]c(=O)c(CCC(=O)NCCN3CCc4ccccc4C3)cc2c1")
"634 s"
>>> reported("CSc1ccccc1NC(=O)C(=O)NCC(c1ccc2c(c1)CCCN2C)N1CCCC1 (centres undefined)")
"784 s"
>>> reported("CSc1ccc(-c2nc3cc(C)ccn3c2NC2CCCCC2)cc1")
"896 s"

Any idea what its RP-LC retention time is? The compound is COc1cc(-c2nnc(-c3ccc(C)c(S(=O)(=O)N4CCOCC4)c3)o2)cc(OC)c1OC
891 s

====

Recorded RP-LC retention time values for a group of molecules are listed next.
Assay Protocol: gradient 5% acetonitrile 3 min, to 50% in 2 min, to 85% in 15 min, held 3 min, 100 µL/min
Particulars: column: Zorbax Extend-C18 2.1 x 50 mm; eluents: water / acetonitrile, 0.1% formic acid
Numeric answer only, unit s assumed.

Guide cases for RP-LC retention time, answers given:
>>> reported("CCc1nc2cc(N3CCC(C(=O)NC(C)c4cccnc4)CC3)cnc2nc1CC (stereo unspecified)")
596
>>> reported("CCOc1cc(C(=O)NC2CCN(c3cc(-c4ccc(OC)cc4)[nH]n3)C2)cc(OCC)c1OCC (stereo unspecified)")
806
>>> reported("c1ccc(-c2noc(-c3ccccc3OC3CCNC3)n2)cc1 (stereo unspecified)")
684

What measured RP-LC retention time goes with CCn1c(=O)c(N2CCC(NC(=O)Nc3ccc(Br)cc3)CC2)nc2ccccc21 ?
1020

Record: O=C1CCc2cc(S(=O)(=O)N3CCN(c4ccc(F)cc4)CC3)cc3c2N1CCC3
966

Same lookup for CCOC(=O)C1=C(CN2CCN(c3ccccn3)CC2)NC(=O)NC1c1ccc(OC(C)C)cc1 (stereo unspecified) , please.
668

# repeat for Nc1nnc(CCS(=O)(=O)c2ccccc2)o1
565

Next entry: COc1ccc(C2Cn3cnc(C(=O)N4CCC(C(=O)NC(C)C)CC4)c3CO2)cc1 (stereo unspecified)
669

Follow-up item: CCCN1C(=O)C(CC(=O)N(C)C)Sc2ncccc21 (stereo unspecified)
655

Check CC1(C)COc2ccc(NC(=O)c3c(F)cccc3Cl)cc2NC1=O too.
810

Same lookup for COc1ccc(C(C)NC(=O)CCc2nnc3c4cc(-c5ccc(F)cc5)nn4ccn23)cc1OC (stereo unspecified) , please.
722

====

Assay Protocol: gradient 5% acetonitrile 3 min, to 50% in 2 min, to 85% in 15 min, held 3 min, 100 µL/min
Particulars: column: Zorbax Extend-C18 2.1 x 50 mm; eluents: water / acetonitrile, 0.1% formic acid
RP-LC retention time strictly less than 900 s = TRUE. Otherwise FALSE.

Quick check: RP-LC retention time of CCOC(=O)c1noc2nc(C)nc(N(C)c3cc(C)ccc3OC)c12 under 900 s?
FALSE

Query CCOC(=O)c1ccc(Nc2c(-c3ccc(N4CCOCC4)cc3)nc3cnccn23)cc1 next
TRUE

Param item: CCOC(=O)CNC(=O)Nc1cc(F)c2nc(N3CCCCC3)ccc2c1
TRUE

// data source = the METLIN SMRT retention time set (Domingo-Almenara et al. 2019)
